Can you tell me protein stability index for the items I'm about to list?
B1: FAM189A2 (parent)
chain: GSEAAVIPLDLGCTQVTQDGDIPN

Variants of: B1
Assay: protein stability index of a GFP-peptide fusion (GPS, HEK-293T) (PSI 1-6); higher = more stable;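 further: lentivirally expressed fusions sorted by FACS into six bins by GFP to DsRed ratio, PSI derived from sequencing read proportions per bin multiplied by bin number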
Conditions: c terminus: a fixed tail appended

Prompt line: Output measured protein stability index for this item: "C13S"
Response line: 5.43

Prompt line: Respond only with protein stability index recorded for "S2V"
Response line: 4.85

Prompt line: Name the recorded protein stability index of the variant listed here: "E3N"
Response line: 5.1

Prompt line: Hello, please tell me recorded protein stability index for this one: "P23Q"
Response line: 5.3

Prompt line: Specify measured protein stability index for "G20T" .
Response line: 5.41

Prompt line: Supply measured protein stability index of "L9W" in your reply.
Response line: 4.67

Prompt line: Return reported protein stability index. Input variant: "A5L"
Response line: 4.57

Prompt line: Return protein stability index for the following variant: "T17G"
Response line: 5

Prompt line: Quote protein stability index reported for "A4T" please.
Response line: 5.27

Prompt line: Quick one: give measured protein stability index for "G12H"
Response line: 4.87

Prompt line: Give recorded protein stability index. "E3A"
Response line: 5.2

Prompt line: // Input: "C13Q" . Output its protein stability index only.
Response line: 5.71

Prompt line: Provide protein stability index value for the following variant: "L11R"
Response line: 5.72

Prompt line: Read off the recorded protein stability index for "D10V"
Response line: 4.48

Prompt line: Identify measured protein stability index associated with "A5P"
Response line: 5.68

Prompt line: Note down protein stability index recorded for "D21C"
Response line: 4.71

Prompt line: Fill in protein stability index for record "Q15D"
Response line: 5.23

Prompt line: Specify measured protein stability index for "A5E" .
Response line: 5.13

Prompt line: Answer with reported protein stability index of "L11V"
Response line: 5.65

Prompt line: Give the value of protein stability index reported for the following: "T14C"
Response line: 4.97

Prompt line: Item "S2H" : provide protein stability index
Response line: 5.25

Prompt line: Please report protein stability index for the following variant: "S2L"
Response line: 4.77
